Values compiled from ChEMBL document CHEMBL1201862.

system: DU-145; assay: NCI tumour cell line growth inhibition, 48 h
The source made the active and inactive calls. No stated cut-off is given here; in the data, active = GI50 up to about 1.1 µM and inactive = higher.
Result category, one only: active, inactive

These recorded examples may help you get a feel for the data.
| compound | group |
| --- | --- |
| CC(NC(=O)C(N)Cc1ccc(O)cn1)C(=O)O (stereo not given) | inactive |
| N#Cc1[nH]c(=O)n(-c2ccccc2)c1N | inactive |
| CCOC(OCC)C(CCc1ccccc1)c1c(N)nc(N)[nH]c1=O (stereo not given) | inactive |

// outcome(item) with item = O=C(O)c1ccc(Nc2nc3cc(C(F)(F)F)ccc3nc2C(=O)O)cc1
inactive

Check Cc1ccc([N+](=O)[O-])cc1S(=O)(=O)Nc1ccc(C2=NOC(c3cccs3)C2)cc1 (stereo not given) too.
inactive

Check CN(Cc1cnc2nc(N)nc(N)c2n1)c1ccc(C(=O)NC(CCC(=O)O)C(=O)O)cc1C(F)(F)F (stereo not given) too.
active

Check C/C(=C\CBr)CCC(Br)C(C)(C)Br (stereo not given) too.
inactive

Check CCOC(=O)NC(C(F)(F)F)(C(F)(F)F)P(=O)(OCC(C)C)OCC(C)C too.
inactive

Check CCCC(=O)NC1=C(NCC)C(=O)c2ccccc2C1=O too.
inactive

Check CCOC(=O)NC(NC(C)CC)(C(F)(F)F)C(F)(F)F (stereo not given) too.
inactive

Check C=C1[C@H](OCC(C)C)[C@@H](O)[C@@H](OC(=O)c2cccnc2)C(C)(C)/C=C/[C@H](C)[C@H](OC(C)=O)[C@@]2(O)C[C@@](C)(OC(C)=O)[C@H](OC(=O)c3ccccc3)[C@@H]2[C@H]1OC(C)=O too.
inactive

Check CC1c2ccccc2Cn2cc3c(c21)C(=O)c1cccc(OP(=O)(O)OCc2ccccc2)c1C3=O (stereo not given) too.
inactive

Check CCS(=O)(=O)CCn1c(=O)c2c(ncn2C)n(C)c1=O too.
inactive

====

system: SK-MEL-28; experiment: NCI tumour cell line growth inhibition, 48 h
Calls of active or inactive are those of the source. Rule as the data show it: active = GI50 up to about 1.1 µM and inactive = higher.
Result category, one only: active, inactive

| compound | assay target | group |
| --- | --- | --- |
| CN1N=CSC12C(=O)N(c1ccc(Cl)cc1)C(=O)N2c1ccc(Cl)cc1 (stereo unspecified) | SK-MEL-28 | inactive |
| O=C(N/C(=C\c1cc(Cl)ccc1Cl)c1nc2c(O)nc(S)nc2[nH]1)c1ccccc1 | SK-MEL-28 | inactive |
| C(=C\c1ccccc1)/Cn1nc(-c2ccccc2)nc1-c1cnccn1 | SK-MEL-28 | inactive |
| CO/N=C(/C(=O)OC)c1ccccc1COc1cccc(C(F)(F)F)c1 | SK-MEL-28 | inactive |
| COC(=O)CC[N+]1=CCC(c2ccccc2)(c2ccccc2)O1 | SK-MEL-28 | inactive |

// outcome(item) with item = CC1c2ccccc2Cn2cc3c(c21)C(=O)c1cccc(OP(=O)(O)OCc2ccccc2)c1C3=O (stereo unspecified)
inactive

Check CC1(C)OCC(C2OC3OC(C)(C)OC3C2N)O1 (stereo unspecified) too.
inactive

Check Nc1nc(-c2cccnc2)cc(-c2cc(-c3cccnc3)nc(N)n2)n1 too.
inactive

Check COc1ccc2nc(NC(=O)C(=O)C(C#N)c3ccc(CC#N)cc3)sc2c1 (stereo unspecified) too.
inactive

Check Cc1nc(Nc2ccccc2)sc1C(=O)CC(=O)C(=O)NC12CC3CC(CC(C3)C1)C2 too.
inactive

Check COC(=O)C(Cc1cc(OC)c(OC)c(OC)c1)C(=O)OC too.
inactive

====

Task for the reader: assign each of the following compounds its reported GI50.
test system: Hs-578T; test: NCI tumour cell line growth inhibition, 48 h
Counter-ions that a name gives are not always drawn. Active and inactive are the calls of the source. No stated cut-off is given here; in the data, active = GI50 up to about 1.1 µM and inactive = higher.

Solved cases below.
| compound | experimental endpoint | reading |
| --- | --- | --- |
| COC(=O)C(I(OS(=O)(=O)c1ccc(C)cc1)c1ccccc1)=P(c1ccccc1)(c1ccccc1)c1ccccc1 | GI50 | 24.7 µM (inactive) |
| Oc1ccc(/C=C/c2cc(O)cc3c2C(c2cc(O)cc(O)c2)C(c2ccc(O)c(O)c2)O3)cc1 (stereo not given) | GI50 | 26.4 µM (inactive) |
| COc1ccc(N2C(=O)C3c4[nH]c5ccc(OC)cc5c4C4CCC(C(C)C)CC4C3C2=O)cc1 (stereo not given) | GI50 | 12.1 µM (inactive) |
| CCc1n[nH]c(=O)n1/N=C/c1ccccc1O | GI50 | 28 µM (inactive) |
| O=[N+]([O-])c1ccc2sc(/C=N/c3ccc(O)cc3)cc2c1 | GI50 | 18.9 µM (inactive) |
| C[C@]12CC[C@H]3[C@@H](CC=C4C[C@@H](O)CC[C@@]43C)[C@@H]1C/C(=C\c1cccnc1)[C@@H]2O | GI50 | 6.21 µM (inactive) |

Batch of 7 compounds: report GI50 for each.
1. CN(C)CCCN1c2ccccc2Sc2ccc(C(F)(F)F)cc21 [TRIFLUPROMAZINE HYDROCHLORIDE]
2. O=[N+]([O-])c1c(F)c(F)c2c(c1F)N(CCCCCl)c1ccccc1S2
3. O=[N+]([O-])c1ccc2sc(/C=N/c3cnccn3)cc2c1
4. CCOC(=O)C(C(=O)OCC)=C1NC2(c3ccccc3Nc3ccc(C)cc32)C(C(=O)OC)S1 (stereo not given)
5. COc1ccc2cc(NC(=O)N/N=C\c3ccc([N+](=O)[O-])cc3)ccc2c1
6. CCOC(=O)C(Cc1ccc(OC(=O)c2ccc(OC)cc2OC)cc1)NC(=O)C(F)(F)F (stereo not given)
7. CC(C)C1CC(CO)(CNc2cc(Cl)nc(N)n2)C1 (stereo not given)

["14.1 µM (inactive)", "24.8 µM (inactive)", "16.7 µM (inactive)", "10.3 µM (inactive)", "42.5 µM (inactive)", "27.5 µM (inactive)", "25.6 µM (inactive)"]

Batch of 4 compounds: report GI50 for each.
1. CC1(O)CC2(O)C=CC3=C(C(=O)c4cccc(O)c4C3=O)C2(O)C(=O)C1O (stereo not given)
2. O=C1C(O)=C(C(CCc2ccccc2)C2=C(O)C(=O)c3ccccc3C2=O)C(=O)c2ccccc21
3. COC(=O)NC(Nc1ccccn1)(C(F)(F)F)C(F)(F)F
4. COc1cc(C[S+]([O-])c2ccc(O)cc2)cc(OC)c1OC (stereo not given)

3.1 µM (inactive)
5.32 µM (inactive)
> 100 µM (inactive)
> 100 µM (inactive)

Batch of 3 compounds: report GI50 for each.
1. O=C(Cn1c(C(=O)/C=C/c2ccc(Cl)cc2)nc2ccccc21)c1ccc(Cl)cc1
2. O=C1N[C@H]2C(=O)c3c(Br)sc(Br)c3[C@H]2O1
3. COC(=O)Cc1cccc2c1CCC2=O

10.9 µM (inactive)
18.7 µM (inactive)
> 100 µM (inactive)

====

Task for the reader: assign each of the following molecules its reported GI50.
system: BT-549; assay: NCI tumour cell line growth inhibition, 48 h
Active and inactive are the calls of the source. Cut-off read from the data, not from the text of the source: active = GI50 up to about 1.1 µM and inactive = higher.

Solved cases below.
| molecule | GI50 |
| --- | --- |
| COc1ccc(OC)c2sc(N3C(=O)/C(=C/c4cccc(Oc5ccccc5)c4)N=C3c3ccccc3)nc12 | > 100 µM (inactive) |
| COC(=O)[C@H](Cc1ccccc1)NC(=O)c1ccc(CNC(=O)/C=C/c2cccc(Oc3ccccc3)c2)cc1 | > 100 µM (inactive) |

Batch of 5 molecules: report GI50 for each.
1. CC1=C/C(=N/N2C(=O)/C(=C/c3ccc(Cl)cc3)N=C2c2ccccc2)CC(C)(C)C1
2. O=[N+]([O-])c1ccc2sc(/C=N/c3ccc(O)cc3)cc2c1
3. c1cc(-c2ccsc2-c2ccsc2)cs1
4. Cc1ncc([N+](=O)[O-])n1CCNS(=O)(=O)CCCn1ccnc1[N+](=O)[O-]
5. CCOC(=O)C(Cc1ccc(OC(=O)c2ccc(OC)cc2)cc1)NC(=O)C(F)(F)F (centres undefined)

> 100 µM (inactive)
22.3 µM (inactive)
81.1 µM (inactive)
> 100 µM (inactive)
> 100 µM (inactive)

Batch of 2 molecules: report GI50 for each.
1. CN(C)c1n2c3cc([N+](=O)[O-])ccc3[n+]3c(N(C)C)n4ccccc4c3c2c2cccc[n+]12.[O-][Cl+3]([O-])([O-])[O-].[O-][Cl+3]([O-])([O-])[O-]
2. O=C(c1ccccc1)c1ccc2[nH]c(-c3c(Cl)c(Cl)c(Cl)c(Cl)c3C(=O)N/N=C\C=C\c3ccccc3)nc2c1

1: > 100 µM (inactive); 2: 47.1 µM (inactive)

====

Task for the reader: assign each of the following molecules its reported GI50.
system: HOP-62; assay: NCI tumour cell line growth inhibition, 48 h
Where a name gives a salt, the structure may show the parent alone. Active and inactive are the calls of the source. Cut-off read from the data, not from the text of the source: active = GI50 up to about 1.1 µM and inactive = higher.

| molecule | GI50 |
| --- | --- |
| Cc1c(C(=O)/C=C/c2ccccc2[N+](=O)[O-])[n+]([O-])c2ccccc2[n+]1[O-] | 18.2 µM (inactive) |

Batch of 2 molecules: report GI50 for each.
1. CC(=O)N1C(=O)/C(=C\C(=O)c2ccc([N+](=O)[O-])cc2)c2ccccc21
2. CCCCCCCCCCCCCP(=O)(O)NCC(N)=O

36.4 µM (inactive)
37.8 µM (inactive)

Batch of 7 molecules: report GI50 for each.
1. O=C1NC(Nc2ccccc2)=NC(C(F)(F)F)(C(F)(F)F)N1
2. CCC(CCC(C)C1CCC2C3CC=C4CC(OC5OC(CO)C(O)C(O)C5O)CCC4(C)C3CCC12C)C(C)C (stereo unspecified)
3. O=[N+]([O-])c1c(F)c(F)c2c(c1F)N(CCCCCl)c1ccccc1S2
4. CCCN1CN(C(C(=O)N[C@@H]2C(=O)N3C(C(=O)O)=C(C)CSC23)c2ccc(O)cc2)CSC1=S (stereo partly specified)
5. CC(=O)c1ccc(NCc2cc(O)ccc2O)cc1
6. O=C(N/C(=C\c1cc(Cl)ccc1Cl)c1nc2c(O)nc(S)nc2[nH]1)c1ccccc1
7. COc1ccc2nc(NC(=O)C(=O)C(C#N)c3ccc(CC#N)cc3)sc2c1 (stereo unspecified)

["53.3 µM (inactive)", "> 100 µM (inactive)", "14.3 µM (inactive)", "> 100 µM (inactive)", "20.6 µM (inactive)", "> 100 µM (inactive)", "> 100 µM (inactive)"]

Batch of 5 molecules: report GI50 for each.
1. CC(=O)O/C=C\OC1CCCC1
2. CC1=NN(c2nc(N)nc(C(C)Sc3cc(Cl)c(C)cc3S(N)(=O)=O)n2)C(C)(C)C1 (stereo unspecified)
3. Cc1c(/N=N/c2ccc([N+](=O)[O-])cc2)nc2scc(-c3ccccc3)n12
4. CC(=O)/C(=C/NC(=S)N/N=C1\C(=O)Nc2ccccc21)C(=O)Nc1ccccc1C
5. COc1c(CC(=O)c2ccccc2)c2ccccc2n1C(C)=O

> 100 µM (inactive)
> 10 µM (inactive)
> 66.5 µM (inactive)
> 100 µM (inactive)
> 100 µM (inactive)

Batch of 6 molecules: report GI50 for each.
1. Cc1ccc(C(=O)/C=C2\Nc3ccccc3S\C2=N\CS(=O)(=O)c2ccc(C)cc2)cc1
2. Cc1ccc([N+](=O)[O-])cc1S(=O)(=O)Nc1ccc(C2=NOC(c3cccs3)C2)cc1 (stereo unspecified)
3. COc1ccc(Cc2nccc3cc(OC)c(OC)cc23)cc1OC [PAPAVERINE HYDROCHLORIDE]
4. O=c1ccs[nH]1
5. CC(=O)NC(C)(C)C1CCC(C)=C(c2ccccc2)C1 (stereo unspecified)
6. O=C1C=CC(=O)c2c(NCC3CC3)ccc(NCC3CC3)c21

1. 7.8 µM (inactive)
2. 5.79 µM (inactive)
3. 43.8 µM (inactive)
4. 17 µM (inactive)
5. > 100 µM (inactive)
6. > 100 µM (inactive)
